System: Acinetobacter baumannii
measurement_protocol: Antibacterial activity against carbapenem-resistant Acinetobacter baumannii CRAB-1 clinical isolate incubated for 16 to 24 hrs by broth microdilution assay
Assay type: functional
cond: time 16-24 hrs
assay_endpoint: MIC (µg/mL)

compound: CN[C@H](CC(C)C)C(=O)N[C@H]1C(=O)N[C@@H](CC(N)=O)C(=O)N[C@H]2C(=O)N[C@H]3C(=O)N[C@H](C(=O)N[C@H](C(=O)O)c4cc(O)c(CNCCC[S+](C)CC(O)COc5ccc(-c6ccccc6)cc5)c(O)c4-c4cc3ccc4O)[C@H](O)c3ccc(c(Cl)c3)Oc3cc2cc(c3O[C@@H]2O[C@H](CO)[C@@H](O)[C@H](O)[C@H]2O[C@H]2C[C@](C)(N)[C@H](O)[C@H](C)O2)Oc2ccc(cc2Cl)[C@H]1O.O=C([O-])C(F)(F)F (stereo not given in full)
uom: µg/mL
bound_operator: =
observed_measurement: 32
--
compound: CN[C@H](CC(C)C)C(=O)N[C@H]1C(=O)N[C@@H](CC(N)=O)C(=O)N[C@H]2C(=O)N[C@H]3C(=O)N[C@H](C(=O)N[C@H](C(=O)O)c4cc(O)c(CNCCC[S+](C)C[C@@H](O)COc5ccccc5)c(O)c4-c4cc3ccc4O)[C@H](O)c3ccc(c(Cl)c3)Oc3cc2cc(c3O[C@@H]2O[C@H](CO)[C@@H](O)[C@H](O)[C@H]2O[C@H]2C[C@](C)(N)[C@H](O)[C@H](C)O2)Oc2ccc(cc2Cl)[C@H]1O.O=C([O-])C(F)(F)F (stereo not given in full)
uom: µg/mL
bound_operator: >
observed_measurement: 128
--
compound: CC(C)C[C@H](C(=O)N[C@H]1C(=O)N[C@@H](CC(N)=O)C(=O)N[C@H]2C(=O)N[C@H]3C(=O)N[C@H](C(=O)N[C@H](C(=O)O)c4cc(O)cc(O)c4-c4cc3ccc4O)[C@H](O)c3ccc(c(Cl)c3)Oc3cc2cc(c3O[C@@H]2O[C@H](CO)[C@@H](O)[C@H](O)[C@H]2O[C@H]2C[C@](C)(N)[C@H](O)[C@H](C)O2)Oc2ccc(cc2Cl)[C@H]1O)N(C)CCC[S+](C)CC(O)COc1ccccc1.O=C([O-])C(F)(F)F (stereo not given in full)
uom: µg/mL
bound_operator: >
observed_measurement: 128
--
compound: CN[C@H](CC(C)C)C(=O)N[C@H]1C(=O)N[C@@H](CC(N)=O)C(=O)N[C@H]2C(=O)N[C@H]3C(=O)N[C@H](C(=O)N[C@H](C(=O)NCCCSCC(O)COc4ccc(-c5ccc(C(F)(F)F)cc5)cc4)c4cc(O)cc(O)c4-c4cc3ccc4O)[C@H](O)c3ccc(c(Cl)c3)Oc3cc2cc(c3O[C@@H]2O[C@H](CO)[C@@H](O)[C@H](O)[C@H]2O[C@H]2C[C@](C)(N)[C@H](O)[C@H](C)O2)Oc2ccc(cc2Cl)[C@H]1O (stereo not given in full)
uom: µg/mL
bound_operator: >
observed_measurement: 128
--
compound: CN[C@H](CC(C)C)C(=O)N[C@H]1C(=O)N[C@@H](CC(N)=O)C(=O)N[C@H]2C(=O)N[C@H]3C(=O)N[C@H](C(=O)N[C@H](C(=O)O)c4cc(O)c(CNCCC[S+](C)CC(O)COc5ccccc5)c(O)c4-c4cc3ccc4O)[C@H](O)c3ccc(c(Cl)c3)Oc3cc2cc(c3O[C@@H]2O[C@H](CO)[C@@H](O)[C@H](O)[C@H]2O[C@H]2C[C@](C)(N)[C@H](O)[C@H](C)O2)Oc2ccc(cc2Cl)[C@H]1O.O=C([O-])C(F)(F)F (stereo not given in full)
uom: µg/mL
bound_operator: =
observed_measurement: 128
--
compound: CN[C@H](CC(C)C)C(=O)N[C@H]1C(=O)N[C@@H](CC(N)=O)C(=O)N[C@H]2C(=O)N[C@H]3C(=O)N[C@H](C(=O)N[C@H](C(=O)NCCC[S+](C)CC(O)COc4ccc(C(C)(C)C)cc4)c4cc(O)cc(O)c4-c4cc3ccc4O)[C@H](O)c3ccc(c(Cl)c3)Oc3cc2cc(c3O[C@@H]2O[C@H](CO)[C@@H](O)[C@H](O)[C@H]2O[C@H]2C[C@](C)(N)[C@H](O)[C@H](C)O2)Oc2ccc(cc2Cl)[C@H]1O.O=C([O-])C(F)(F)F (stereo not given in full)
uom: µg/mL
bound_operator: =
observed_measurement: 64
--
compound: CC(C)C[C@H](C(=O)N[C@H]1C(=O)N[C@@H](CC(N)=O)C(=O)N[C@H]2C(=O)N[C@H]3C(=O)N[C@H](C(=O)N[C@H](C(=O)O)c4cc(O)cc(O)c4-c4cc3ccc4O)[C@H](O)c3ccc(c(Cl)c3)Oc3cc2cc(c3O[C@@H]2O[C@H](CO)[C@@H](O)[C@H](O)[C@H]2O[C@H]2C[C@](C)(N)[C@H](O)[C@H](C)O2)Oc2ccc(cc2Cl)[C@H]1O)N(C)CCC[S+](C)C[C@@H](O)COc1ccccc1.O=C([O-])C(F)(F)F (stereo not given in full)
uom: µg/mL
bound_operator: >
observed_measurement: 128
--
compound: CN[C@H](CC(C)C)C(=O)N[C@H]1C(=O)N[C@@H](CC(N)=O)C(=O)N[C@H]2C(=O)N[C@H]3C(=O)N[C@H](C(=O)N[C@H](C(=O)O)c4cc(O)c(CNCCC[S+](C)C[C@H](O)COc5ccccc5)c(O)c4-c4cc3ccc4O)[C@H](O)c3ccc(c(Cl)c3)Oc3cc2cc(c3O[C@@H]2O[C@H](CO)[C@@H](O)[C@H](O)[C@H]2O[C@H]2C[C@](C)(N)[C@H](O)[C@H](C)O2)Oc2ccc(cc2Cl)[C@H]1O.O=C([O-])C(F)(F)F (stereo not given in full)
uom: µg/mL
bound_operator: >
observed_measurement: 128
--
compound: CN[C@H](CC(C)C)C(=O)N[C@H]1C(=O)N[C@@H](CC(N)=O)C(=O)N[C@H]2C(=O)N[C@H]3C(=O)N[C@H](C(=O)N[C@H](C(=O)NCCC[S+](C)C[C@@H](O)COc4ccccc4)c4cc(O)cc(O)c4-c4cc3ccc4O)[C@H](O)c3ccc(c(Cl)c3)Oc3cc2cc(c3O[C@@H]2O[C@H](CO)[C@@H](O)[C@H](O)[C@H]2O[C@H]2C[C@](C)(N)[C@H](O)[C@H](C)O2)Oc2ccc(cc2Cl)[C@H]1O.O=C([O-])C(F)(F)F (stereo not given in full)
uom: µg/mL
bound_operator: >
observed_measurement: 128
--
compound: CC(=O)NC[C@H]1CN(c2ccc(N3CCOCC3)c(F)c2)C(=O)O1
uom: µg/mL
bound_operator: =
observed_measurement: 128

// provenance: ChEMBL document CHEMBL6134868
